Data provenance is patent US20220184071A1.

protocol notes: Plasma and urine pharmacokinetics, phase IIa study in women with acute uUTI
Type: in vivo, human
conditions used: female, human, plasma, oral, 1500 mg, Day 4; read-out: Plasma AUC(0-T), Geometric Mean (% CVb)
metric name: AUC(0-t) (ng·h/mL)
Give bare numbers, in ng·h/mL.

Incoming: Consider the compound "O=c1ccc2ncc(=O)n3c2n1C[C@H]3CN1CCC(NCc2cc3c(cn2)OCCC3)CC1" and give its measured AUC(0-t).
Outgoing: 29300

###

protocol notes: Plasma and urine pharmacokinetics, phase IIa study in women with acute uUTI
Assay type: in vivo, human
conditions used: female, human, in vivo; over the 12-hour dosing interval; 1500 mg BID oral; read-out: minimum / steady-state trough urine concentrations (remained above a MIC of)
Description: Bronchoalveolar lavage samples were collected to determine gepotidacin exposures in ELF and AM following a single 1000 mg IV infusion over 2 hours to healthy subjects. Saliva exposure was assessed in healthy volunteers following 1500 mg oral single dose. Gepotidacin exposures in urine was assessed in women with acute uUTI following 1500 mg BID oral doses for 5 days. […]
metric name: concentration at 12 h

Incoming: Consider the compound "O=c1ccc2ncc(=O)n3c2n1C[C@H]3CN1CCC(NCc2cc3c(cn2)OCCC3)CC1" and give its measured concentration at 12 h.
Outgoing: > 4000 ng/mL
